Record form. Attribute: pEC50. Fill in for each entry.
# Study system: hM1 (human Muscarinic receptor subtype 1) (Homo sapiens, UniProt P11229)
# Construct: expressed in transfected cells; host or cells: CHO cells (Chinese hamster ovary cells, ATCC)
# Sequence (P11229 whole entry): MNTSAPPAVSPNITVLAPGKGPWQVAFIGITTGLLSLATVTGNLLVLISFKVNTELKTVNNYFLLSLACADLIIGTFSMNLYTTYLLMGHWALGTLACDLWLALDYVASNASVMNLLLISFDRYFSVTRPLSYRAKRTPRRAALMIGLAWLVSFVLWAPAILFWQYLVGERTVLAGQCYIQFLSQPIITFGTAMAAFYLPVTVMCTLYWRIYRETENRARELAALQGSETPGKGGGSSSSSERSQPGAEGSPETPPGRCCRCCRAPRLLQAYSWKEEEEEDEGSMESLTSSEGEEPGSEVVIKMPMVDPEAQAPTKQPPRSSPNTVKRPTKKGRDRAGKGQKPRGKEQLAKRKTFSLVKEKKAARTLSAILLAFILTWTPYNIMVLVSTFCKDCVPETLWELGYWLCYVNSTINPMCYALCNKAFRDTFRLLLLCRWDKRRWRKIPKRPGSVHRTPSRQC
# Experiment summary: Human M1 calcium mobilization FLIPR assay
# Assay type: cell-based
# Applied conditions: hM1 expressed in CHO cells, intracellular Ca2+ release, read-out: hM1 EC50
A value of pEC50 is the negative decimal logarithm of a concentration given in moles per litre.

Data point: COC(=O)N1CCC(C)(N2CCC(n3c(=O)[nH]c4ccccc43)CC2)C1 (racemic) [Example 2] ; pEC50 = 7.89

Data point: C#CCOC(=O)N1CCC(C)(N2CCC(n3c(=O)[nH]c4ccc(C)cc43)CC2)C1 (single isomer, unassigned) [Example 43] ; pEC50 = 8.60

Data point: CCOC(=O)N1CCC(C)(N2CCC(n3c(=O)[nH]c4ccc(F)cc43)CC2)C1 (single isomer, unassigned) [Example 50] ; pEC50 = 8.66

Data point: CC1(N2CCC(n3c(=O)[nH]c4cc(F)ccc43)CC2)CCN(C(=O)OCCF)C1 (centres unmarked) [Example 10] ; pEC50 = 7.58

Data point: CCOC(=O)N1CCC(C)(N2CCC(n3c(=O)[nH]c4cc(F)c(C)cc43)CC2)C1 (single isomer, unassigned) [Example 55] ; pEC50 = 8.31

Data point: Cc1ccc2c(c1)[nH]c(=O)n2C1CCN(C2(C)CCN(C(=O)OCCF)C2)CC1 (single isomer, unassigned) [Example 27] ; pEC50 = 7.97

Data point: CCOC(=O)N1CCC(C)(N2CCC(N3C(=O)Cc4cc(F)c(C)cc43)CC2)C1 (single isomer, unassigned) [Example 81] ; pEC50 = 8.06

Data point: CCOC(=O)N1CCC(C)(N2CCC(n3c(=O)[nH]c4ccccc43)CC2)C1 (centres unmarked) ; pEC50 = 8.38

====

# Study system: cloned human M2 receptor (human Muscarinic receptor subtype 2) (Homo sapiens, UniProt P08172)
# Construct: purchased Perkin-Elmer RBHM2M; host or cells: Chinese hamster ovary cells (CHO) membranes
# Sequence (P08172 whole entry): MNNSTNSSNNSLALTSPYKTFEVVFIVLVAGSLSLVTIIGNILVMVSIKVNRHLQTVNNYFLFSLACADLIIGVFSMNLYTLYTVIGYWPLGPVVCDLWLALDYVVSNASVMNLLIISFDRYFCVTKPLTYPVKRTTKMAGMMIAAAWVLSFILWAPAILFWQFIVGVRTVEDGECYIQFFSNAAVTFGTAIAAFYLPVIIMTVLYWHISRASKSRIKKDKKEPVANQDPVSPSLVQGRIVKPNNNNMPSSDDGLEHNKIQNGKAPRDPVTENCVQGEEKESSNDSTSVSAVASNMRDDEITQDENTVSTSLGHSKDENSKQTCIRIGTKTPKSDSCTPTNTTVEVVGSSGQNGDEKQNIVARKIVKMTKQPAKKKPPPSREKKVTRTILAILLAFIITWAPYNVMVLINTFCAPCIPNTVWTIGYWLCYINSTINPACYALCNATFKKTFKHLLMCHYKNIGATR
# Experiment summary: hM2 receptor GTPγS binding
# Type: biochemical
# Applied conditions: CHO cell membranes expressing hM2; [35S]GTPγS binding; read-out: hM2 EC50
Record form. Attribute: EC50. Fill in for each entry.
Your answer should be a plain number; it is taken to be in µM.

Data point: COC(=O)N1CCC(C)(N2CCC(N3C(=O)Cc4ccc(C)cc43)CC2)C1 (single isomer, unassigned) [Example 67] ; EC50 = 4.65

Data point: CC1(N2CCC(n3c(=O)[nH]c4ccccc43)CC2)CCN(C(=O)OCCF)C1 (racemic) [Example 4] ; EC50 = 1.86

Data point: COC(=O)N1CCC(C)(N2CCC(n3c(=O)[nH]c4cc(F)ccc43)CC2)C1 (single isomer, unassigned) [Example 23] ; EC50 = 0.668

Data point: COC(=O)N1CCC(C)(N2CCC(N3C(=O)Cc4ccc(C)cc43)CC2)C1 (single isomer, unassigned) [Example 68] ; EC50 = 1.15

Data point: CCOC(=O)N1CCC(C)(N2CCC(n3c(=O)[nH]c4ccccc43)CC2)C1 (stereo not shown) ; EC50 = 0.498

Data point: COC(=O)N1CCC(C)(N2CCC(n3c(=O)[nH]c4ccc(F)cc43)CC2)C1 (single isomer, unassigned) ; EC50 = 1.24

Data point: Cc1ccc2c(c1)[nH]c(=O)n2C1CCN(C2(C)CCN(C(=O)OC(C)C)C2)CC1 (single isomer, unassigned) [Example 15] ; EC50 = 2.85
